Listing of recorded pIC50 by entry.
System: adherence of JY-8 cells (expressing LFA-1) to immobilized ICAM-1
Experiment: ICAM-1/JY-8 Cell Adhesion Assay
Type: cell-based, human
Conditions: Homo sapiens, JY-8, JY-8 cells on immobilized ICAM-1/Ig
The scale used: pIC50 is minus the common logarithm of the concentration in molar units.

Solved entries (count: 5):
INSERT INTO results (chemical_structure, recorded_endpoint, result_value) VALUES
  ('O=C(C(=O)N1CCN(C(=O)/C=C/c2ccc(Sc3ccc(Cl)cc3Cl)c([N+](=O)[O-])c2)CC1)c1ccco1', 'pIC50', 6.60),
  ('Cc1ccccc1Sc1ccc(/C=C/C(=O)NCCCN2CCCC2=O)cc1C(F)(F)F', 'pIC50', 6.60),
  ('O=C(/C=C/c1ccc(Sc2ccc(Cl)cc2Cl)c(Br)c1)NCCCN1CCCC1=O', 'pIC50', 6.07),
  ('CCc1ccccc1Sc1ccc(/C=C/C(=O)N2CCN(C(C)=O)CC2)cc1[N+](=O)[O-]', 'pIC50', 7.70),
  ('Cc1ccccc1Sc1ccc(/C=C/C(=O)N2CCN(c3ccccc3)CC2)cc1C(F)(F)F', 'pIC50', 6.80);

Inquiry: Consider the molecule CCN(CC)C(=O)CN1CCN(C(=O)/C=C/c2ccc(Sc3ccc(Cl)cc3Cl)c([N+](=O)[O-])c2)CC1 and give its measured pIC50.
Reply text: 6.55
